Tested on: A498 renal
TEST_SUMMARY: NCI-60 one-dose screen, 48 h (100 = growth as untreated, 0 = no growth, -100 = all killed)
ASSAY_CONTEXT: 10 µM unless noted
The panel holds about 83,000 compounds, 20% with a hit somewhere; the sample as a whole holds those more often. Calls of active or inactive are those of the source. Rule for the calls: active = growth percent below 10; inactive = the rest.
MEASURE: growth

compound=CCN(CC)S(=O)(=O)c1cccc(-c2ccc3c(NC(=O)C4CC4)n[nH]c3c2)c1 result_value="9.92% [6.25 µM] (active)"
compound="N#CC1=C(c2ccc(Br)cc2)NC(SCC(=O)c2ccc(Br)cc2)NC1=O (stereo not given)" result_value="80.1% (inactive)"
compound=Oc1c(CN2CCCC2)cc(COCc2ccc(Br)cc2)c2cccnc12 result_value="-1.12% (active)"
compound=c1ccc2c(c1)nc(CN1CCOCC1)n1cc(N3CCCC3)nc21 result_value="98.7% (inactive)"
compound=Cc1cccc(Cc2cnc(NC(=O)/C=C/c3ccco3)s2)c1 result_value="13.8% (inactive)"
compound=CC(C)(C)n1cc(-c2ccnc(NCCCNS(=O)(=O)c3ccccc3)c2)c(-c2ccccc2)n1 result_value="39.7% (inactive)"
compound=Nc1n[nH]c(-c2cc(Cl)ccc2O)c1-c1ccccc1 result_value="101% (inactive)"
compound=NC(=N\N=C/c1cccc([N+](=O)[O-])c1)/C(N)=N\N=C/c1cccc([N+](=O)[O-])c1 result_value="61.5% (inactive)"
compound=COc1ccccc1CNCCCN1C(=O)c2ccc3c4c(ccc(c24)C1=O)C(=O)N(CCCNCCCCN)C3=O result_value="-52% (active)"
compound=COc1ccc(-c2c(N)n[nH]c2-c2ccc(Cl)cc2O)cc1OC result_value="86.6% (inactive)"

----------
Tested on: OVCAR-8 ovarian
TEST_SUMMARY: NCI-60 one-dose screen, 48 h (100 = growth as untreated, 0 = no growth, -100 = all killed)
ASSAY_CONTEXT: 10 µM unless noted
Compounds without any hit were thinned out: in the full panel of roughly 83,000, 20% have a hit.
Rule: growth below 80% gives 1, anything at or above gives -1.

molecule=CCOC(=O)c1c(-c2ccc(Cl)cc2)c(C#N)c(=O)n(-c2ccccc2CC)c1N tested_system="OVCAR-8 ovarian" class=-1
molecule="CCCCCCCOc1c(OC)cc(C2CC(=O)Nc3c2c(C)nn3-c2nc3ccccc3[nH]2)cc1OC (configuration not stated)" tested_system="OVCAR-8 ovarian" class=1
molecule=C[C@H](NC(=O)[C@@H]1CSSC[C@@H](NC(=O)c2nc3ccccc3cc2O)C(=O)NCC(=O)N1C)c1ccccc1 tested_system="OVCAR-8 ovarian" class=1
molecule=NC(=S)N/N=C/Cc1ccccc1 tested_system="OVCAR-8 ovarian" class=-1
molecule=CCN(CC)CCN1CC(O)=C(c2nc(-c3ccc(Cl)cc3)cs2)C1=N tested_system="OVCAR-8 ovarian" class=1
molecule="N#CC1=C(NC=O)Oc2c(ccc3ccccc23)C1c1ccccc1 (configuration not stated)" tested_system="OVCAR-8 ovarian" class=1
molecule="CS(=O)c1cccc(-c2ccc3nc(N)n(-c4ccc(C(F)(F)F)cc4)c(=O)c3c2)c1 (configuration not stated)" tested_system="OVCAR-8 ovarian" class=-1
molecule=Cc1ccc2nc3ccccc3c(NCc3ccccc3)c2c1 tested_system="OVCAR-8 ovarian" class=1
molecule=CC(C)(C)c1ccc(/C=C/C(=O)Nc2ccc(O)cc2)cc1 tested_system="OVCAR-8 ovarian" class=1
molecule="COc1cc(C2CC(c3cc(OC)c(OCCCOc4ccc(-n5c(/C=C/c6ccccc6)nc6ccccc6c5=O)cc4)c(OC)c3)=NO2)cc(OC)c1OC (configuration not stated)" tested_system="OVCAR-8 ovarian" class=-1
molecule=CCOc1c(C#N)nnc2c(C#N)c(NC(=O)c3ccccc3)nn12 tested_system="OVCAR-8 ovarian" class=-1
molecule=CCCCCS(=O)(=O)Nc1ccc(C(=O)O)cc1 tested_system="OVCAR-8 ovarian" class=-1

----------
Tested on: TK-10 renal
TEST_SUMMARY: NCI-60 one-dose screen, 48 h (100 = growth as untreated, 0 = no growth, -100 = all killed)
ASSAY_CONTEXT: 10 µM unless noted
The panel holds about 83,000 compounds, 20% with a hit somewhere; the sample as a whole holds those more often.
Items are presented alongside their recorded growth.
MEASURE: growth (%)

compound=COc1cccc(-c2nc3sccn3c2-c2ccnc(NCCNS(=O)(=O)c3cccc(F)c3)c2)c1 unit_name=% result_value=51.4
compound=CCc1ccccc1NC(=O)/C(C#N)=C/c1ccc(OC)cc1 unit_name=% result_value=115
compound="O=C(c1ccccc1)N1N=C(c2ccccc2)CC1c1nnc2n(Cc3ccccc3)c(=O)c3c4c(sc3n12)CCCC4 (stereo not given)" unit_name=% result_value=111
compound=NC(=N\N=C/c1ccccc1[N+](=O)[O-])/C(N)=N\N=C/c1ccccc1[N+](=O)[O-] unit_name=% result_value=99.6
compound="N#Cc1c2c(nn(-c3ccccc3)c1=O)C(O)=C([N+](=O)[O-])C(c1ccccc1)C2 (stereo not given)" unit_name=% result_value=99.1
compound=O=[N+]([O-])c1ccc(OCCO)cc1 unit_name=% result_value=117
compound=COc1cc(N2C(=O)c3nccnc3C2=O)cc(OC)c1OC unit_name=% result_value=100
compound="CC1OC(O[C@H]2/C=C/C=C/C=C/C=C/C=C/C=C/C=C/[C@H](C)[C@@H](O)[C@@H](C)[C@H](C)OC(=O)CC(O)CC(O)CCC(O)C(O)CC(O)C[C@]3(O)C[C@H](O)C(C(=O)O)C(C2)O3)C(O)[C@H](N)C1O (stereo not given in full)" unit_name=% result_value=-40.7
compound=CS(=O)(=O)c1ccc(Nc2nc(N[C@H]3CCCC[C@H]3N)nc3cc[nH]c(=O)c23)cc1 unit_name=% result_value=44.6
compound="COc1ccc(C2c3ccc4ccccc4c3Oc3nc(C)[nH]c(=O)c32)cc1 (stereo not given)" unit_name=% result_value=116

----------
System: M14 melanoma
TEST_SUMMARY: NCI-60 one-dose screen, 48 h (100 = growth as untreated, 0 = no growth, -100 = all killed)
ASSAY_CONTEXT: 10 µM unless noted
About 83,000 compounds went through this panel and 20% of them were active in at least one assay; those are over-represented in the sample as a whole.
Items are presented alongside their recorded growth.
MEASURE: growth (%)

compound="COc1ccc(C2CC(c3cccc(OC)c3)=NN2C(=O)c2cc(OC)c(OC)c(OC)c2)cc1 (stereo not given)" unit_name=% result_value=16.5
compound=CCN(CC)CCN1C(=O)c2c(c(C)c3c(oc4cc(O)ccc43)c2C)C1=O unit_name=% result_value=-79.3
compound=CCCCNC(=O)Oc1ccc2c(=O)c3sc4c(=O)c5ccccc5c(=O)c4c3c(=O)c2c1 unit_name=% result_value=-77.6
compound=c1ccc2cc3nc4cc5ccccc5cc4nc3cc2c1 unit_name=% result_value=101
compound=N=C1CCC(=N)c2c1c(O)c1ccccc1c2O unit_name=% result_value=118

----------
Test system: HCT-116 colon
TEST_SUMMARY: NCI-60 one-dose screen, 48 h
ASSAY_CONTEXT: 10 µM unless noted
This is part of a sample that, as a whole, favours compounds with a hit. Of some 83,000 tested, about 20% had one in any assay. Calls of active or inactive are those of the source. How the source made its calls: active means growth percent below 10; inactive means the rest.
Possible outcomes: yes for active, no for inactive

compound=CSc1n(Cc2ccc3ccccc3c2)c(C)c[n+]1Cc1ccc2ccccc2c1 class=yes
compound=COC(=O)[C@H](CSC)N(C)C(=O)[C@@H]1CSSC[C@@H](NC(=O)c2nc3ccccc3cc2O)C(=O)NCC(=O)N1C class=no
compound=O=C1OC(c2nc3ccccc3s2)=C/C1=C\c1ccc(O)cc1 class=no
compound="COCN1CCC2N(COC)CCC3N(COC)CCC1N23 (stereo not drawn)" class=no
compound="CCOc1ccccc1-n1c(CN2CCN(C(=O)COc3ccc(CNCCCCCCN4C5CCCC4CC(OC(=O)Nc4cc(C)ccc4OC)C5)cc3)CC2)nc2ccccc2c1=O (stereo not drawn)" class=yes
compound=Cc1ccc(-c2c(-c3ccccc3)c(=O)oc3ccc(C)cc23)cc1 class=no
compound=C=C(C)[C@@H]1CC[C@]2(C(=O)NC3CCCCC3)CC[C@]3(C)[C@H](CC[C@@H]4[C@@]5(C)CCC(=O)C(C)(C)[C@@H]5CC[C@]43C)[C@@H]12 class=no
compound=N#Cc1c(N)nn(C(=O)c2ccc(NC(=O)c3ccccn3)cc2)c1-c1ccc(Cl)cc1 class=no

----------
System: NCI-H322M lung
TEST_SUMMARY: NCI-60 one-dose screen, 48 h (100 = growth as untreated, 0 = no growth, -100 = all killed)
ASSAY_CONTEXT: 10 µM unless noted
The panel holds about 83,000 compounds, 20% with a hit somewhere; the sample as a whole holds those more often.
MEASURE: growth (%)

compound=O=[N+]([O-])c1ccc(N2c3ccncc3Sc3ccncc32)cc1 tested_system="NCI-H322M lung" measure=growth result_value=105
compound=CN1CCN(CCCOc2ccc3nc(Nc4ccc(F)c(F)c4)ccc3c2)CC1 tested_system="NCI-H322M lung" measure=growth result_value=68
compound=C[C@H](NC(=O)[C@@H]1CSSC[C@@H](NC(=O)c2nc3ccccc3cc2O)C(=O)NCC(=O)N1C)c1ccccc1 tested_system="NCI-H322M lung" measure=growth result_value=76.7
compound=O=C1Nc2ccccc2/C1=C/c1cn(C(=O)c2c(Cl)cccc2Cl)c2ccccc12 tested_system="NCI-H322M lung" measure=growth result_value=90.4
compound=C[C@H]1[C@H]2[C@H]3CC[C@@H]4[C@@]5(C)C/C(=C/c6cccnc6)C(=O)C(C)(C)[C@@H]5CC[C@@]4(C)[C@]3(C)CC[C@]23CO[C@]1(C)[C@@H](C(=O)/C=C\c1cccnc1)C3 tested_system="NCI-H322M lung" measure=growth result_value=46.4
compound=CC(=O)c1ccc(NCC(=O)Nc2ccccn2)cc1 tested_system="NCI-H322M lung" measure=growth result_value=103
compound=C=C(C)[C@@H]1CC=C2c3sc(-c4ccc(C)cc4)nc3C[C@@H](C)[C@]2(C)C1 tested_system="NCI-H322M lung" measure=growth result_value=101
compound=c1ccc2cc3nc4cc5ccccc5cc4nc3cc2c1 tested_system="NCI-H322M lung" measure=growth result_value=109
compound="CS(=O)c1cccc(-c2ccc3nc(N)n(-c4ccc(C(F)(F)F)cc4)c(=O)c3c2)c1 (stereo not given)" tested_system="NCI-H322M lung" measure=growth result_value=103
compound=O=C(/C=C/c1ccc(Cl)nc1)c1ccc(Cl)cc1Cl tested_system="NCI-H322M lung" measure=growth result_value=99.8

Each recorded value in this set is attributed to PubChem BioAssay (NCI).
